Target: HIV Env, isolate Du156.12 (HIV)
Experiment: cell-based or functional assay
outcomeMeasure: IC80 (µg/ml) with constrains (µg/mL)
Give bare numbers, in µg/mL.

Form: binder = PGDM1400 (antibody, V domains shown) VH: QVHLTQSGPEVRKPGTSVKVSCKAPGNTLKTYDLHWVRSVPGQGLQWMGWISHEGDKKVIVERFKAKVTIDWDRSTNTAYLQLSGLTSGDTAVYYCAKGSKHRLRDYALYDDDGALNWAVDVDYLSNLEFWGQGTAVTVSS VL: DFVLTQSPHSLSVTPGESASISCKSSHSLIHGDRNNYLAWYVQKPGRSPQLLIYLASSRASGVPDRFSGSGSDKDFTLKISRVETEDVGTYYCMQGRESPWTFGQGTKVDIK ; IC80 (µg/ml) with constrains = 0.025
